experiment: Blood levels of penciclovir in Pekin ducks after oral dosing with penciclovir or famciclovir; assay type: in vivo; conditions: duck, 20 mg/kg, 0-6 hr, oral penciclovir 20 mg/kg, Duck No. 169, read-out: AUC (area under the 0-6 hr. concentration/time curve) of penciclovir in blood
Quantity: AUC at 6 h (µM·h)
All answers are understood in µM·h, so give the number only.

Requested read-out: AUC at 6 h. Entry: "Nc1nc2c(ncn2CCC(CO)CO)c(=O)[nH]1" 57

###

assay: Blood levels of penciclovir in Pekin ducks after oral dosing with penciclovir or famciclovir; type: in vivo; conditions: duck, 25 mg/kg, 0-6 hr, oral famciclovir 25 mg/kg, Duck No. 153, read-out: AUC (area under the 0-6 hr. concentration/time curve) of penciclovir in blood
Quantity: AUC at 6 h
Answer format: value, then unit.

Requested read-out: AUC at 6 h. Entry: CC(=O)OCC(CCn1cnc2cnc(N)nc21)COC(C)=O [famciclovir] 90 µM·h

###

assay: Blood levels of penciclovir in Pekin ducks after oral dosing with penciclovir or famciclovir; format: in vivo; conditions: duck, 25 mg/kg, 60 min, oral famciclovir 25 mg/kg, Duck No. 153
Quantity: concentration at 1 h (µM)
All answers are understood in µM, so give the number only.

Requested read-out: concentration at 1 h. Entry: "CC(=O)OCC(CCn1cnc2cnc(N)nc21)COC(C)=O" 25

###

assay: Blood levels of penciclovir in Pekin ducks after oral dosing with penciclovir or famciclovir; type: in vivo; details: duck, 5 mg/kg, 360 min, oral famciclovir 5 mg/kg, Duck No. 154
Quantity: concentration at 6 h (nM)
All answers are understood in nM, so give the number only.

Requested read-out: concentration at 6 h. Entry: "CC(=O)OCC(CCn1cnc2cnc(N)nc21)COC(C)=O" 1000

###

assay: Blood levels of penciclovir in Pekin ducks after oral dosing with penciclovir or famciclovir; assay type: in vivo; settings: duck, 20 mg/kg, 15 min, oral penciclovir 20 mg/kg, Duck No. 139
Quantity: concentration at 0.25 h (µM)
All answers are understood in µM, so give the number only.

Requested read-out: concentration at 0.25 h. Entry: Nc1nc2c(ncn2CCC(CO)CO)c(=O)[nH]1 [penciclovir] 24

###

assay: Blood levels of penciclovir in Pekin ducks after oral dosing with penciclovir or famciclovir; assay type: in vivo; details: duck, 100 mg/kg, 120 min, oral penciclovir 100 mg/kg, Duck No. 163
Quantity: concentration at 2 h
Answer format: value, then unit.

Requested read-out: concentration at 2 h. Entry: "Nc1nc2c(ncn2CCC(CO)CO)c(=O)[nH]1" 21 µM

###

assay: Blood levels of penciclovir in Pekin ducks after oral dosing with penciclovir or famciclovir; type: in vivo; details: duck, 20 mg/kg, 0-6 hr, oral penciclovir 20 mg/kg, Duck No. 139, read-out: AUC (area under the 0-6 hr. concentration/time curve) of penciclovir in blood
Quantity: AUC at 6 h (µM·h)
All answers are understood in µM·h, so give the number only.

Requested read-out: AUC at 6 h. Entry: Nc1nc2c(ncn2CCC(CO)CO)c(=O)[nH]1 [penciclovir] 55

###

experiment: Blood levels of penciclovir in Pekin ducks after oral dosing with penciclovir or famciclovir; type: in vivo; conditions: duck, 5 mg/kg, 240 min, oral famciclovir 5 mg/kg, Duck No. 154
Quantity: concentration at 4 h

Requested read-out: concentration at 4 h. Entry: "CC(=O)OCC(CCn1cnc2cnc(N)nc21)COC(C)=O" 1400 nM
